System: K98450-129-R-PDC multicell spheroids, viability;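 note: spheroids exposed to agents for seven days before read-out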
experimental-protocol: Anticancer human tumor K98450-129-R-PDC patient-derived colon adenocarcinoma cell line growth inhibition [PI3K]
condition-description: second compound 3.16 µM; first compound 0.1 µM; stronger effect = lower value
assay-endpoint: viability, T/C

{"columns": ["compound", "measured-result"],
 "data": [
  ["CC(C)NCC(C(=O)N1CCN(c2ncnc3c2C(C)CC3O)CC1)c1ccc(Cl)cc1 (stereo not drawn) + Cc1nc(NC(=O)N2CCCC2C(N)=O)sc1-c1ccnc(C(C)(C)C(F)(F)F)c1", "84.1%"],
  ["Cn1ncnc1[C@H]1c2n[nH]c(=O)c3cc(F)cc(c23)N[C@@H]1c1ccc(F)cc1 + CC(Nc1ncnc2nc[nH]c12)c1cc2cccc(Cl)c2c(=O)n1-c1ccccc1", "88%"],
  ["CCN1CCN(Cc2ccc(Nc3ncc(F)c(-c4cc(F)c5nc(C)n(C(C)C)c5c4)n3)nc2)CC1 + Cc1nc(NC(=O)N2CCCC2C(N)=O)sc1-c1ccnc(C(C)(C)C(F)(F)F)c1", "84.7%"]
]}
